The measurements presented in this section are drawn from patent US20230117034A1.

target: CDK12/CycK (Homo sapiens); assay: CDK12/CycK high ATP kinase assay (TR-FRET, 2 mM ATP); settings: 2 mM ATP (high ATP); median; read-out: CDK12/CyclinK, 2 mM ATP (high ATP), IC50-[mol/l] (median)
Sequence (Q9NYV4 with tags, fused parts or gaps): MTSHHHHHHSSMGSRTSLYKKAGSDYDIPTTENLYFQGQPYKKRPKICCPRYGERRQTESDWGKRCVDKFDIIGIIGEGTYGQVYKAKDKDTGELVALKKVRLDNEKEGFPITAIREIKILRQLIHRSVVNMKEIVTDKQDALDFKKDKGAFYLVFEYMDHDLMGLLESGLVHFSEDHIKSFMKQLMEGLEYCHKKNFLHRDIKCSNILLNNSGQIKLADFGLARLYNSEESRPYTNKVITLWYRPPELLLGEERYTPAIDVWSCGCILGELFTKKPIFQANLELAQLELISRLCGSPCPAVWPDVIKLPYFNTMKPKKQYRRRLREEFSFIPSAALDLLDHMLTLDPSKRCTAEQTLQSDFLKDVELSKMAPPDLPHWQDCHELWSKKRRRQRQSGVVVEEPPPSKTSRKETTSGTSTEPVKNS
Sequence (O75909 1-300 partner limits assumed): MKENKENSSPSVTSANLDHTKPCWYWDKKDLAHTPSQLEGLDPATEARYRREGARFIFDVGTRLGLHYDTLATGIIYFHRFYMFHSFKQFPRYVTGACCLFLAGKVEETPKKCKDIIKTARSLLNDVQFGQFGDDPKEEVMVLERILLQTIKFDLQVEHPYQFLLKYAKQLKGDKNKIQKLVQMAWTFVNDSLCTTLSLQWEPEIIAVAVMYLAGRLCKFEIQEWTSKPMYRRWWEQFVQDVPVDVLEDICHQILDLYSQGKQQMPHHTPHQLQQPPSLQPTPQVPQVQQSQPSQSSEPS
observationType: log10 of IC50 (log10 of the value in µM)
Plainly stated, the numbers are log10 of IC50 given in µM.

Observe how each entry below is paired with its result.
[
  {
    "molecule": "CC1CN(c2nc(NCc3nc4ccccc4[nH]3)n3ncc(C(C)C)c3n2)CCO1 (racemic)",
    "log10 of IC50": 0.50
  },
  {
    "molecule": "Clc1cccc(-c2nnc(CNc3nc(N4CCOCC4)nc4c(Br)cnn34)[nH]2)c1",
    "log10 of IC50": 0.24
  },
  {
    "molecule": "COc1cccc(-c2nnc(CNc3nc(N4CCOCC4)nc4c(Br)cnn34)[nH]2)c1",
    "log10 of IC50": 0.45
  },
  {
    "molecule": "Fc1ccc(-c2cnc(CNc3nc(N4CCOCC4)nc4c(Br)cnn34)[nH]2)cc1",
    "log10 of IC50": 0.01
  },
  {
    "molecule": "OC[C@@H]1CCCCN1c1nc(NCc2nnc(-c3ccccc3)[nH]2)n2ncc(Br)c2n1",
    "log10 of IC50": -0.21
  }
]

Considering `CN1CCN(c2nc(NCc3nc4cc(C(F)(F)F)ccc4[nH]3)n3ncc(Br)c3n2)CC1` , its log10 of IC50 with CDK12/CycK (Homo sapiens) was recorded as 0.92

Considering `Brc1cnn2c(NCc3nc4ccccc4[nH]3)nc(N3C[C@H]4C[C@@H]3CO4)nc12` , its log10 of IC50 with CDK12/CycK (Homo sapiens) was recorded as 0.84

Considering `Fc1ccc(-c2nnc(CNc3nc(N4CCOCC4)nc4c(Br)cnn34)[nH]2)cc1F` , its log10 of IC50 with CDK12/CycK (Homo sapiens) was recorded as 0.19

Considering `c1ccc(-c2nnc(CNc3nc(N4CCOCC4)nc4c(C5CC5)cnn34)[nH]2)cc1` , its log10 of IC50 with CDK12/CycK (Homo sapiens) was recorded as 0.43

Considering `Fc1ccc2[nH]c(CNc3nc(N4C[C@H]5CC[C@@H](C4)N5)nc4c(C5CC5)cnn34)nc2c1F` , its log10 of IC50 with CDK12/CycK (Homo sapiens) was recorded as 0.27

Considering `N[C@@H]1[C@@H]2C[C@H]1CN(c1nc(NCc3nc4ccccc4[nH]3)n3ncc(Br)c3n1)C2` , its log10 of IC50 with CDK12/CycK (Homo sapiens) was recorded as 0.85

Considering `Brc1cnn2c(NCc3nc4ccccc4[nH]3)nc(N3CCN4CCC[C@H]4C3)nc12` , its log10 of IC50 with CDK12/CycK (Homo sapiens) was recorded as 1.03

Considering `CN1CCN(c2nc(NCc3nc4c(F)c(F)ccc4[nH]3)n3ncc(Cl)c3n2)CC1` , its log10 of IC50 with CDK12/CycK (Homo sapiens) was recorded as 1.06

Considering `Brc1cnn2c(NCc3nc4ccccc4[nH]3)nc(N3CCN4CCC[C@@H]4C3)nc12` , its log10 of IC50 with CDK12/CycK (Homo sapiens) was recorded as 0.79
